- Read-out: Human Leukocyte Antigen - DR isotype (HLADR), HLA-DRA (gene 3122)
- procedureText: BSK_CASM3C_HLADR: BioMAP Diversity Plus: CASM3C Assay for Human Leukocyte Antigen - DR isotype (HLADR) Biomarker Activity (AID 2283043);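 also: cell-surface HLA-DR protein level quantified by ELISA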
- testParameters: primary human coronary artery smooth muscle cells; actives raise or lower the signal
The source made the active and inactive calls. The calls were made as follows: active = hit-call score of the fitted dose curve at least 0.9, where 1 is the maximum; inactive = score below 0.9.
Result category, one only: 1 for active, 0 for inactive

Would you please look over these solved cases?
CC(=O)Nc1ccc(C(=O)CCl)cc1; 1
C=C(C)[C@H]1CC=C(C)C(=O)C1; 0

Recorded test call requested for IC(I)I 0

* * *

- procedureText: ATG_XTT_Cytotoxicity: Cytotoxicity Assessment in the Attagene TRANS-FACTORIAL HepG2 Assay (AID 2283584)
Results filed as inconclusive are left out. Active and inactive are the calls of the source. The calls were made as follows: active = hit-call score of the fitted dose curve at least 0.9, where 1 is the maximum; inconclusive = response in the unintended direction; inactive = score below 0.9.
// allowed return values: active, inactive

Study these solved cases before continuing.
OCc1ccc(Cl)cc1Cl; inactive
CCOCCOCCOCC; inactive
CC(C)(N=C=O)c1cccc(C(C)(C)N=C=O)c1; inactive
CCCCCCC(=O)c1ccccc1; inactive
CC(Oc1cc(Cl)ccc1Cl)C(=O)O (centres undefined); inactive

Outcome? C=C1CC[C@H](O)C/C1=C/C=C1\CCC[C@]2(C)[C@@H]([C@H](C)/C=C/[C@H](C)C(C)C)CC[C@@H]12 inactive

For this compound, state the assay outcome: COC(=O)c1ccc(C)cc1C1=NC(C)(C(C)C)C(=O)N1 (centres undefined) (tested in a mixture with another compound) inactive

What was the test verdict on CCCCCc1ccco1 ? inactive

For ON=C1CCCCC1 , which call appears in the assay record? inactive

Please indicate how the test categorized CCCC(O)C(O)CO (centres undefined) . inactive

// return assay outcome for CN(C)CCOc1ccc(/C(=C(/CCCl)c2ccccc2)c2ccccc2)cc1 active
